# assay-notes: Powder dissolution, USP/NF paddle method with HPLC analysis
# Type: physicochemical
# experimental-setup: 5 min; 500 mg in 900 mL water, 37 °C, 75 rpm; mean of 3; trihydrate
observed-property: Amoxicillin released in solution Mean (%)

> print(dat)
                                   compound  unit.of.measurement  endpoint.value
1  CC1(C)S[C@@H]2[C@H](NC(=O)[C@H](N)c3ccc(O)cc3)C(=O)N2[C@H]1C(=O)O.O.O.O [entry 2, amoxicillin trihydrate]                    %           98.99
2  CC1(C)S[C@@H]2[C@H](NC(=O)[C@H](N)c3ccc(O)cc3)C(=O)N2[C@H]1C(=O)O.O.O.O [entry 1, amoxicillin trihydrate]                    %           99.51
3  CC1(C)S[C@@H]2[C@H](NC(=O)[C@H](N)c3ccc(O)cc3)C(=O)N2[C@H]1C(=O)O.O.O.O [entry 6, amoxicillin trihydrate]                    %           82.60

----------
# assay-notes: Powder dissolution, USP/NF paddle method with HPLC analysis
# Format: physicochemical
# experimental-setup: 3 min; 500 mg in 900 mL water, 37 °C, 75 rpm; replicate #2; trihydrate
observed-property: Amoxicillin released in solution #2 (%)

> print(dat)
                                   molecule  endpoint.value
1  CC1(C)S[C@@H]2[C@H](NC(=O)[C@H](N)c3ccc(O)cc3)C(=O)N2[C@H]1C(=O)O.O.O.O [entry 5, amoxicillin trihydrate]           80.12
2  CC1(C)S[C@@H]2[C@H](NC(=O)[C@H](N)c3ccc(O)cc3)C(=O)N2[C@H]1C(=O)O.O.O.O [entry 3, amoxicillin trihydrate]           97.25
3  CC1(C)S[C@@H]2[C@H](NC(=O)[C@H](N)c3ccc(O)cc3)C(=O)N2[C@H]1C(=O)O.O.O.O [entry 1, amoxicillin trihydrate]           99.01

----------
# assay-notes: Powder dissolution, USP/NF paddle method with HPLC analysis
# Type: physicochemical
# experimental-setup: 3 min; 500 mg in 900 mL water, 37 °C, 75 rpm; mean of 3; trihydrate
observed-property: Amoxicillin released in solution Mean (%)

> print(dat)
                                   compound  endpoint.value
1  CC1(C)S[C@@H]2[C@H](NC(=O)[C@H](N)c3ccc(O)cc3)C(=O)N2[C@H]1C(=O)O.O.O.O [entry 3, amoxicillin trihydrate]           97.65
2  CC1(C)S[C@@H]2[C@H](NC(=O)[C@H](N)c3ccc(O)cc3)C(=O)N2[C@H]1C(=O)O.O.O.O [entry 4, amoxicillin trihydrate]           77.11
3  CC1(C)S[C@@H]2[C@H](NC(=O)[C@H](N)c3ccc(O)cc3)C(=O)N2[C@H]1C(=O)O.O.O.O [entry 5, amoxicillin trihydrate]           77.98
4  CC1(C)S[C@@H]2[C@H](NC(=O)[C@H](N)c3ccc(O)cc3)C(=O)N2[C@H]1C(=O)O.O.O.O [entry 6, amoxicillin trihydrate]           79.56
5  CC1(C)S[C@@H]2[C@H](NC(=O)[C@H](N)c3ccc(O)cc3)C(=O)N2[C@H]1C(=O)O.O.O.O [entry 2, amoxicillin trihydrate]           99.69
6  CC1(C)S[C@@H]2[C@H](NC(=O)[C@H](N)c3ccc(O)cc3)C(=O)N2[C@H]1C(=O)O.O.O.O [entry 1, amoxicillin trihydrate]           99.25

Where do the numbers come from? From patent US9820943B2.
